Recorded SPOT peptide array binding signal intensity by entry
# TARGET_OR_TEST_SYSTEM: AgMyo5
# PROCEDURE_SUMMARY: SPOT peptide array binding signal intensity (averaged, normalized) (arbitrary units (background-subtracted, floor 0; scale differs between SH3 domains)); higher = stronger binding of the SH3 domain to the peptide

Worked cases, answers included:
{"BINDER": "PVLPPPRSPNRPTLS", "MEASURED_VALUE": 15.5}
{"BINDER": "VRTRRRPPPPPIPST", "MEASURED_VALUE": 274}
{"BINDER": "QRIRKIPGIPLMSVG", "MEASURED_VALUE": "≤ 0"}
{"BINDER": "PIVPSSPAPPLPLSG", "MEASURED_VALUE": 3230}
{"BINDER": "FYNRTAFQLPGDARV", "MEASURED_VALUE": 9.5}

Task: Query SPOT peptide array binding signal intensity for APPLPPTAPPPPSLP
Result: 2800
